Kd reference
- measured_on: T1, hPDGFRb.mmh (human, UniProt P09619 33-531)
- T1 construct: Soluble monomeric construct; also called soluble human PDGFR-beta.mmh
- experiment_notes: SPR, mAb captured, 25 C

Some binders with known Kd results, for comparison:
H4H3094P (antibody, human IgG4, V domains shown, also called H4H3394P) VH: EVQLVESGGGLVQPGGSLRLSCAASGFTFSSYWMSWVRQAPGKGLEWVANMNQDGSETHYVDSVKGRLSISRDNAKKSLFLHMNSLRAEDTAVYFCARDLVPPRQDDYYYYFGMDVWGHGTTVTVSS VL: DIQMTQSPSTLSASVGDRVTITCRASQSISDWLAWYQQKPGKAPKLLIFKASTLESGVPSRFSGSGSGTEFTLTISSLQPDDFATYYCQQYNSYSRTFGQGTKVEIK; 1.56 nM
H1M3361N (antibody, mouse IgG1, V domains shown, mouse IgG1 Fc (H1M prefix)) VH: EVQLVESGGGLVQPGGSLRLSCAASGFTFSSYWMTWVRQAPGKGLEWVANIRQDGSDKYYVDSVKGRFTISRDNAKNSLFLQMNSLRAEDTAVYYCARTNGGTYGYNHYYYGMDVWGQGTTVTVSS VL: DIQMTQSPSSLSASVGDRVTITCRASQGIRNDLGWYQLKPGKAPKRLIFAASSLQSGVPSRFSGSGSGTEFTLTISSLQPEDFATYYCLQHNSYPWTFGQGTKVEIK; 7.29 nM
H4H3374N (antibody, human IgG4, V domains shown, human IgG4 Fc (H4H prefix)) VH: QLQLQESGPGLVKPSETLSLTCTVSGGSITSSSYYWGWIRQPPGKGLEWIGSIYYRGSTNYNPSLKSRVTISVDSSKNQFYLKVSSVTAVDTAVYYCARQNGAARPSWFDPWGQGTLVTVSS VL: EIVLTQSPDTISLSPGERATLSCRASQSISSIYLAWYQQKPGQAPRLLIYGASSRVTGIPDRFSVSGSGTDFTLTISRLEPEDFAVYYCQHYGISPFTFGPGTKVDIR; 1.26 nM
H4H3105S (antibody, human IgG4, V domains shown, human IgG4 Fc (H4H prefix)) VH: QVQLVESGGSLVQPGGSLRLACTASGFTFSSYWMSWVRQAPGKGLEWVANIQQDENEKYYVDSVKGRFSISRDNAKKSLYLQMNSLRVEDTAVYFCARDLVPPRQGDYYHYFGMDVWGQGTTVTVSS VL: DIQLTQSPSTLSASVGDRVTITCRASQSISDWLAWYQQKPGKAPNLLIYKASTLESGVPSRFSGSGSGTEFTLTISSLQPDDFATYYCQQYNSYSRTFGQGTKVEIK; 3.19 nM

Then there is this binder:
Exercise: Tell me the measured Kd of H4H3095S (antibody, human IgG4, V domains shown, human IgG4 Fc (H4H prefix)) VH: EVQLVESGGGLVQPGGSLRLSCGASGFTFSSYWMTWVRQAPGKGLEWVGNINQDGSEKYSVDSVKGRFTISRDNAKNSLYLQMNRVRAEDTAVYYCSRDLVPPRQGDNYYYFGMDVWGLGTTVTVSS VL: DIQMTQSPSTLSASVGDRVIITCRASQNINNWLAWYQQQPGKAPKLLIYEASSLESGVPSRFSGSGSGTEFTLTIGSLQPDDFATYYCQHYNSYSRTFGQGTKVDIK , please.
Solution: 4.78 nM
